Test system: COR-L 105
measurement_protocol: relative viability (nuclei count vs DMSO), 5 days (fraction); higher = more cells survive
reported_conditions: first compound 0.05 µM
Property: relative viability; scope: individual compounds
assay_endpoint: relative viability

>  <compound>
Nc1ccn([C@@H]2O[C@H](CO)[C@@H](O)[C@@H]2O)c(=O)n1 [Cytarabine] + O=C(c1cc(Cc2n[nH]c(=O)c3ccccc23)ccc1F)N1CCN(C(=O)C2CC2)CC1 [Olaparib] (partner 8 µM)

>  <assay_endpoint>
relative viability

>  <experimental_result>
0.417

$$$$
>  <compound>
Nc1ccn([C@@H]2O[C@H](CO)[C@@H](O)[C@@H]2O)c(=O)n1 [Cytarabine] + CCNC(=O)c1noc(-c2cc(C(C)C)c(O)cc2O)c1-c1ccc(CN2CCOCC2)cc1 [Luminespib] (partner 0.01 µM)

>  <assay_endpoint>
relative viability

>  <experimental_result>
0.739

$$$$
